- system under test: T1, recombinant dimeric c-Met (R&D systems, 358-MT/CF) (human, UniProt P08581 25-932)
- T1 construct: Bought product; also called Fc-Met; recombinant c-Met
- T1 sequence (P08581 25-932 limits assumed): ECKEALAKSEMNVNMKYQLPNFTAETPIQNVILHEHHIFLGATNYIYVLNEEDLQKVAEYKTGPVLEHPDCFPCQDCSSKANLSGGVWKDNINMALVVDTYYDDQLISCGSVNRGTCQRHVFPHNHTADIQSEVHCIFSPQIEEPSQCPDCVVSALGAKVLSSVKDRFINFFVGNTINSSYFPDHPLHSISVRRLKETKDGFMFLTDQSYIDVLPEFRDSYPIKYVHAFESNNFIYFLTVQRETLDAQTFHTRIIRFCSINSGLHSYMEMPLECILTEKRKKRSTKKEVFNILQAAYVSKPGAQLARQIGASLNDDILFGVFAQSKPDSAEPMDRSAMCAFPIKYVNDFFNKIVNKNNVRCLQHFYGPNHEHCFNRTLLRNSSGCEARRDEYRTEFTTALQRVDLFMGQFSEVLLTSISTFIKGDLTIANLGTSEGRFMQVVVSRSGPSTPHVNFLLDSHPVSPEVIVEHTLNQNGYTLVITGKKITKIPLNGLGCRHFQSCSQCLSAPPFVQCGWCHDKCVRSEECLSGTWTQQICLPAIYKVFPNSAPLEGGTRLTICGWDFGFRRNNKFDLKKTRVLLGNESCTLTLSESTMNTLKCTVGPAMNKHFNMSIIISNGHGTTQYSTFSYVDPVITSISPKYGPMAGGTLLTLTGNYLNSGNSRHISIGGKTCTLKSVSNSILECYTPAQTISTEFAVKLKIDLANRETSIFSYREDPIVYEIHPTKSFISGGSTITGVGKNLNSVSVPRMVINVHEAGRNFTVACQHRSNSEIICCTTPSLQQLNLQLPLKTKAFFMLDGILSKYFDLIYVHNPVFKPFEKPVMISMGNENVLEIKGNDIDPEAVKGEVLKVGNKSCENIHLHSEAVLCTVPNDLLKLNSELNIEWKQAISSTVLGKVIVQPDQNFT
- measurement protocol: SPR, periplasmic Fab over Fc-Met (around 3000 RU) on CM5 chip
result type: koff (s⁻¹)
Write down the numeric answer in s⁻¹ and omit the unit.

{"binder": "48B6 VL shuffled Fab (Fab, V domains shown, VL-shuffled Fab with the 38H10 heavy chain, periplasmic extract) VH: EVQLVQPGVELRNPGASVKVSCKASGYIFTMNSIDWVRQAPGQGLEWMGRIDPEDGGTKYAQKFQGRVTFTADTSTSTAYVELNSLRSEDTAVYYCARVDDYYLGYDYWGQGTQVTVSS VL: DIQLTQSPSSVTASAGEKVTINCKSSQSVLYGSNQKNYLAWYQQRLGQSPRLLIYWASTRESGVPDRFSGSGSTTDFTLTISSFQPEDAAVYYCQQGWSFPYTFGSGTRLEIK", "result type": "koff", "readout units": "s⁻¹", "endpoint value": 0.00012}
{"binder": "48E5 VL shuffled Fab (Fab, V domains shown, VL-shuffled Fab with the 38H10 heavy chain, periplasmic extract) VH: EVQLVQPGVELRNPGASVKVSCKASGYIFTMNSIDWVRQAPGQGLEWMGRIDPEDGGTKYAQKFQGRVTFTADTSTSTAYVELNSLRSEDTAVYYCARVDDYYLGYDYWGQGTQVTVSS VL: DIQMTQSPSSVTASAGEKVTINCKSSQSVLYNSNQKNYLAWYQQRLGQSPRLLIYWASTRESGVPDRFSGSGSTTDFTLTISSFQPEDAAVYYCQQGWSFPYTFGSGTRLEIK", "result type": "koff", "readout units": "s⁻¹", "endpoint value": 0.00019}
{"binder": "48E2 VL shuffled Fab (Fab, V domains shown, VL-shuffled Fab with the 38H10 heavy chain, periplasmic extract) VH: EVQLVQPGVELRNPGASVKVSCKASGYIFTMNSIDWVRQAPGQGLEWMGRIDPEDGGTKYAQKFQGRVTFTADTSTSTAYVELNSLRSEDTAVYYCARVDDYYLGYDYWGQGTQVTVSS VL: DVVMTQSPSSVTASAGEKVTINCKSSQSVLWSSNQKNYLAWYQQRVGQSPRLLIYWASTRESGVPDRFSGSGSTTDFTLTISNFQPEDAAVYYCQQGYSFPYSFGSGTRLEIR", "result type": "koff", "readout units": "s⁻¹", "endpoint value": 0.00029}
{"binder": "49D3 VL shuffled Fab (Fab, V domains shown, VL-shuffled Fab with the 36C4Q heavy chain, periplasmic extract) VH: QVQLVESGPGLVKPSQTLSLTCAVSGGSITTNYYYWSWIRQSPGKGLEWMGVIAYDGSTDYSPSLKSRTSISRDTSKNQFSLQLSSVTPEDTAVYYCARDVRVIATGWATANALDAWGQGTQVTVSS VL: LPVLTQPPSVSGTLGKTLTISCAGTSSDVGYGNYVSWYQQLPGTAPKLLIYAVSYRASGIPDRFSGSKSGNTASLSISGLQSEDEADYYCASYRSSNKNAVFGGGTHLTVL", "result type": "koff", "readout units": "s⁻¹", "endpoint value": 0.00082}

Proceed to the following item.
Recorded koff of 49E11 VL shuffled Fab (Fab, V domains shown, VL-shuffled Fab with the 36C4Q heavy chain, periplasmic extract) VH: QVQLVESGPGLVKPSQTLSLTCAVSGGSITTNYYYWSWIRQSPGKGLEWMGVIAYDGSTDYSPSLKSRTSISRDTSKNQFSLQLSSVTPEDTAVYYCARDVRVIATGWATANALDAWGQGTQVTVSS VL: QAVLTQPPSVSGTLGKTVTISCAGTSSDVGYGNYVSWYQKLPGTAPKLLIYAVSYRASGIPDRFSGSKSGNTASLTISGLQSEDEADYHCASYRTSNNVAVFGGGTKLTVL , please.
0.00063
